Target: human serotonin 5-HT2C receptor (Homo sapiens)
Construct: expressed in transfected cells; host or cells: CHO-K1
Sequence (P28335 33-458): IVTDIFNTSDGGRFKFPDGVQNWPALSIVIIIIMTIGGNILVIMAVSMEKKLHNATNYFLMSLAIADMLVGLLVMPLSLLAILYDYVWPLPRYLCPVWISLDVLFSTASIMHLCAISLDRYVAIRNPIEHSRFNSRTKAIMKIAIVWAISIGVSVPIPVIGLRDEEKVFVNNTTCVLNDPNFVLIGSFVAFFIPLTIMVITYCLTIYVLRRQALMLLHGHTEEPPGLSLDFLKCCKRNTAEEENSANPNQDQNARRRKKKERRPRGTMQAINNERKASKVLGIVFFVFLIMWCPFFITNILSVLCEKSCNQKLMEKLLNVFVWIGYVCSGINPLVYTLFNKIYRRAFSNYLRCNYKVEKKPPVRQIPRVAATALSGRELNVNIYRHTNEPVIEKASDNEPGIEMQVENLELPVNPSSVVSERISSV
Test: Radioligand binding assay, human 5-HT2C receptors ([3H]Mesulergine)
Settings: human 5-HT2c; Example 16 table; read-out: IC50 (nM) 5-HT2c
In this section we review reported IC50 values for a set of compounds.
MEASURED PARAMETER: IC50

COMPOUND STRUCTURE STRING | TEST RESULT
Clc1ccc(C2(c3nc(N4CCNCC4)sc3Cl)CCOCC2)cc1 | < 1000 nM
CN1CCN(c2nc(C3(c4ccccc4F)CCCCC3)cs2)CC1 | < 100 nM
CN1CCN(c2nc(C3(c4cccc(Cl)c4)CCOCC3)cs2)CC1 | < 1000 nM
CN1CCN(c2nc(C3(c4ccccc4F)CCCC3)cs2)CC1 | < 100 nM
CN1CCN(c2nc(C3(c4ccc(Cl)cc4)CCC3)cs2)CC1 | < 1000 nM
CN1CCN(c2nc(C3(c4csc5ccc(Cl)cc45)CCOCC3)cs2)CC1 | < 1000 nM
COc1ccc(C2(c3csc(N4CCN(C)CC4)n3)CCOCC2)cc1 | > 1000 nM
Clc1ccc(C2(c3csc(N4CCNCC4)n3)CCOCC2)cc1 | < 1000 nM
Clc1ccc(C2(c3csc(NCCN4CCOCC4)n3)CCC2)cc1 | > 1000 nM
